B1: RTP4 (parent)
chain: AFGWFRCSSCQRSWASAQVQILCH

Variants of: B1
Experiment: protein stability index of a GFP-peptide fusion (GPS, HEK-293T) (PSI 1-6); higher = more stable;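 also: lentivirally expressed fusions sorted by FACS into six bins by GFP to DsRed ratio, PSI derived from sequencing read proportions per bin multiplied by bin number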
Details: c terminus: a fixed tail appended
Experimental Readout: protein stability index
No unit in the answer, only the number.

Input: Find the recorded protein stability index belonging to Q18K and report it.
Output: 1.42

Input: Same for Q11D
Output: 2.83

Input: // next record Q20C
Output: 2.17

Input: And then V19P , what is it?
Output: 1.35

Input: // same read-out, input: R12D
Output: 2.1

Input: What about A1R ?
Output: 3.15

Input: Another variant to check: Q20L
Output: 4.4

Input: And then A15K , what is it?
Output: 2.12

Input: Repeat with W14Y
Output: 2.11
